- ASSAY_PROCEDURE: Cytotoxicity against human U937 cells assessed as cell viability at 10 ug/ml after 72 hrs by MTT assay
- Assay type: cell-based, U-937
- EXPERIMENTAL_PARAMETERS: read-out: Activity
viability at 72 h, 10 ug/ml under 70% gets y, anything at or over 70% gets n.

These recorded examples may help you get a feel for the data.
{"columns": ["COMPOUND", "ASSIGNED_CLASS"],
 "data": [
  ["O/N=C1\\c2ccccc2-c2c1c(N1CCN(c3ccccn3)CC1)nc1ccc(Br)cc21", "y"],
  ["CCCCCCCCCC(=O)O/N=C1\\c2ccccc2-c2c1c(-n1ccnc1)nc1ccc(Br)cc21", "n"],
  ["CCCCCCCC(=O)OC1(C)c2ccccc2-c2c1c(-n1ccnc1)nc1ccc(Br)cc21 (stereo unspecified)", "y"],
  ["CC(C)(C)OC(=O)N[C@H](C(=O)O/N=C1\\c2ccccc2-c2c1c(N1CCN(c3ccccn3)CC1)nc1ccc(Br)cc21)C(C)(C)C", "n"],
  ["CCCCC(=O)O/N=C1\\c2ccccc2-c2c1c(-n1ccnc1)nc1ccc(Br)cc21", "n"]
]}

Item O=C(/C=C/c1ccco1)O/N=C1\c2ccccc2-c2c1c(N1CCN(c3ccccn3)CC1)nc1ccc(Br)cc21 : viability at 72 h, 10 ug/ml beneath 70%, strictly?
n

For CN(C)C(=O)O/N=C1\c2ccccc2-c2c1c(-n1ccnc1)nc1ccc(Br)cc21 , is the recorded viability at 72 h, 10 ug/ml below the cut-off of 70%?
y

Quick check: viability at 72 h, 10 ug/ml of CC(C)(C)OC(=O)NCC(=O)OC1(C)c2ccccc2-c2c1c(-n1ccnc1)nc1ccc(Br)cc21 (stereo unspecified) under 70%?
y

* * *

Reported values of viability at 72 h, 20 ug/ml for individual entries
- ASSAY_PROCEDURE: Cytotoxicity against human U937 cells assessed as cell viability at 20 ug/ml after 72 hrs by MTT assay
- Format: cell-based, U-937
- EXPERIMENTAL_PARAMETERS: read-out: Activity
A number alone suffices; assume %.

Here's what some known entries look like.
{"columns": ["COMPOUND", "UNIT_TEXT", "viability at 72 h, 20 ug/ml"],
 "data": [
  ["CCC(=O)O/N=C1\\c2ccccc2-c2c1c(-n1ccnc1)nc1ccc(Br)cc21", "%", 67],
  ["CC(C)(C)OC(=O)NCC(=O)O/N=C1\\c2ccccc2-c2c1c(N1CCN(c3ccccn3)CC1)nc1ccc(Br)cc21", "%", 49],
  ["CCCCCC(=O)OC1(C)c2ccccc2-c2c1c(-n1ccnc1)nc1ccc(Br)cc21 (stereo not given)", "%", 15],
  ["CCCCCC(=O)O/N=C1\\c2ccccc2-c2c1c(N1CCN(c3ccccn3)CC1)nc1ccc(Br)cc21", "%", 87],
  ["CCCCCCCCC(=O)OC1(C)c2ccccc2-c2c1c(-n1ccnc1)nc1ccc(Br)cc21 (stereo not given)", "%", 50]
]}

Consider the record given below.
I would be grateful if you could share the reported viability at 72 h, 20 ug/ml for O/N=C1\c2ccccc2-c2c1c(-n1ccnc1)nc1ccc(Br)cc21 .
77

* * *

- Tested on: Serum
- ASSAY_PROCEDURE: Stability of the compound in 80% human blood serum assessed as hydrolysis to 2-bromo-6-(1H-imidazol-1-yl)-7H-indeno[2,1-c]quinolin-7-one oxime at 1 mg after 24 hrs at 37 degC by LC-MS analysis
- Assay type: ADME, cell-free
MEASURE: Activity

// worked examples, Activity included
{"columns": ["MOLECULE", "Activity"],
 "data": [
  ["CN(C)C(=O)O/N=C1\\c2ccccc2-c2c1c(N1CCN(c3ccccn3)CC1)nc1ccc(Br)cc21", "Not Active"],
  ["CCCCC(=O)O/N=C1\\c2ccccc2-c2c1c(-n1ccnc1)nc1ccc(Br)cc21", "90%"],
  ["CN(C)C(=O)OC1(C)c2ccccc2-c2c1c(-n1ccnc1)nc1ccc(Br)cc21 (configuration not stated)", "Not Active"],
  ["CCCCCC(=O)OC1(C)c2ccccc2-c2c1c(-n1ccnc1)nc1ccc(Br)cc21 (configuration not stated)", "Not Active"]
]}

Record CCCC(=O)O/N=C1\c2ccccc2-c2c1c(-n1ccnc1)nc1ccc(Br)cc21 : what is its Activity with Serum?
90%

Param readout= Activity; system= Serum; entry= CCCCC(=O)OC1(C)c2ccccc2-c2c1c(-n1ccnc1)nc1ccc(Br)cc21 (configuration not stated) ; returns value.
Not Active

Report Activity for O=C(/C=C/c1ccco1)O/N=C1\c2ccccc2-c2c1c(N1CCN(c3ccccn3)CC1)nc1ccc(Br)cc21 tested on Serum.
Not Active

Please provide the recorded Activity for CCCCCCCCC(=O)OC1(C)c2ccccc2-c2c1c(-n1ccnc1)nc1ccc(Br)cc21 (configuration not stated) , tested on Serum.
Not Active

Give recorded Activity with Serum for the following molecule: CCCCCCCCCC(=O)O/N=C1\c2ccccc2-c2c1c(-n1ccnc1)nc1ccc(Br)cc21
90%

API: value(readout=Activity, system=Serum) for record CC(=O)OC1(C)c2ccccc2-c2c1c(-n1ccnc1)nc1ccc(Br)cc21 (configuration not stated)
Not Active

Which Activity is reported with Serum for this entry: CC(C)(C)OC(=O)NCC(=O)OC1(C)c2ccccc2-c2c1c(-n1ccnc1)nc1ccc(Br)cc21 (configuration not stated) ?
Not Active

Tell me reported Activity for CCCCCCC(=O)OC1(C)c2ccccc2-c2c1c(-n1ccnc1)nc1ccc(Br)cc21 (configuration not stated) , tested with Serum.
Not Active

* * *

In this section, each of the compounds is paired with its reported half-life.
- ASSAY_PROCEDURE: Half life in 10% aqueous ammonia buffer at pH 8 assessed as hydrolysis to 2-bromo-6-(1H-imidazol-1-yl)-7H-indeno[2,1-c]quinolin-7-one oxime at 37 degC by LC-MS analysis
- Assay type: physicochemical
Respond with the bare value in min.

{"columns": ["COMPOUND", "RECORDED_RESULT"],
 "data": [
  ["CCCCCC(=O)OC1(C)c2ccccc2-c2c1c(-n1ccnc1)nc1ccc(Br)cc21 (stereo not drawn)", 17300],
  ["CC(C)(C)OC(=O)NC(Cc1cccc(F)c1)C(=O)O/N=C1\\c2ccccc2-c2c1c(N1CCN(c3ccccn3)CC1)nc1ccc(Br)cc21 (stereo not drawn)", 4320],
  ["CC(=O)O/N=C1\\c2ccccc2-c2c1c(-n1ccnc1)nc1ccc(Br)cc21", 2880]
]}

Sample CC(C)(C)OC(=O)N1CCC[C@H]1C(=O)O/N=C1\c2ccccc2-c2c1c(-n1ccnc1)nc1ccc(Br)cc21 — what was its half-life?
720

Look up half-life: CC1(OC(=O)CC(F)(F)F)c2ccccc2-c2c1c(-n1ccnc1)nc1ccc(Br)cc21 (stereo not drawn)
1440

Sample CC(C)(C)OC(=O)N1CCC[C@H]1C(=O)O/N=C1\c2ccccc2-c2c1c(N1CCN(c3ccccn3)CC1)nc1ccc(Br)cc21 — what was its half-life?
1440

Reported half-life for CC(=O)OC1(C)c2ccccc2-c2c1c(-n1ccnc1)nc1ccc(Br)cc21 (stereo not drawn) : what is it?
14400

State the recorded half-life for this entry: CC(C)[C@H](NC(=O)OCC1c2ccccc2-c2ccccc21)C(=O)O/N=C1\c2ccccc2-c2c1c(N1CCN(c3ccccn3)CC1)nc1ccc(Br)cc21
1440

* * *

- ASSAY_PROCEDURE: Cytotoxicity against human U937 cells assessed as cell viability at 5 ug/ml after 72 hrs by MTT assay
- Format: cell-based, U-937
- EXPERIMENTAL_PARAMETERS: read-out: Activity
Catalogue of viability at 72 h, 5 ug/ml values
Entry rule: numbers only, all in %.

Solved cases below.
{"columns": ["MOLECULE", "MEASURE", "UNIT_TEXT", "RECORDED_RESULT"],
 "data": [
  ["CCCCCCC(=O)O/N=C1\\c2ccccc2-c2c1c(-n1ccnc1)nc1ccc(Br)cc21", "viability at 72 h, 5 ug/ml", "%", 80],
  ["CC(C)(C)OC(=O)NCC(=O)O/N=C1\\c2ccccc2-c2c1c(N1CCN(c3ccccn3)CC1)nc1ccc(Br)cc21", "viability at 72 h, 5 ug/ml", "%", 82],
  ["CC1(OC(=O)CC(F)(F)F)c2ccccc2-c2c1c(-n1ccnc1)nc1ccc(Br)cc21 (stereo not given)", "viability at 72 h, 5 ug/ml", "%", 80],
  ["CC(=O)O/N=C1\\c2ccccc2-c2c1c(-n1ccnc1)nc1ccc(Br)cc21", "viability at 72 h, 5 ug/ml", "%", 78]
]}

// lookup viability at 72 h, 5 ug/ml for CN(C)C(=O)O/N=C1\c2ccccc2-c2c1c(-n1ccnc1)nc1ccc(Br)cc21
82

* * *

- ASSAY_PROCEDURE: Stability of the compound in 10% aqueous ammonia buffer at pH 8 assessed as hydrolysis to 2-bromo-6-(1H-imidazol-1-yl)-7H-indeno[2,1-c]quinolin-7-one oxime at 1 mg at 37 degC by LC-MS analysis
- Assay type: physicochemical
- Design: scale not given: the % may be the effect or the level left
MEASURE: Activity (%)
Field format: number, assumed %, no unit text.

{"columns": ["COMPOUND", "Activity (%)"],
 "data": [
  ["CCCCCCCC(=O)OC1(C)c2ccccc2-c2c1c(-n1ccnc1)nc1ccc(Br)cc21 (stereo not drawn)", 90],
  ["CC(C)(C)OC(=O)N1CCC[C@H]1C(=O)O/N=C1\\c2ccccc2-c2c1c(-n1ccnc1)nc1ccc(Br)cc21", 90],
  ["CCCCCC(=O)O/N=C1\\c2ccccc2-c2c1c(N1CCN(c3ccccn3)CC1)nc1ccc(Br)cc21", 95]
]}

Form field: reported Activity of CCC(=O)O/N=C1\c2ccccc2-c2c1c(N1CCN(c3ccccn3)CC1)nc1ccc(Br)cc21
95

Looking for the measured Activity of CCCCCC(=O)O/N=C1\c2ccccc2-c2c1c(-n1ccnc1)nc1ccc(Br)cc21 , can you help?
90

# lookup: Activity of CC(C)(C)OC(=O)NC(Cc1ccccc1)C(=O)O/N=C1\c2ccccc2-c2c1c(N1CCN(c3ccccn3)CC1)nc1ccc(Br)cc21 (stereo not drawn)
98
